Where do these numbers come from? They come from patent US20240092802A1.

assay-text: Pharmacokinetics and brain distribution after single intraperitoneal dose in male C57BL/6 mice
study-conditions: male, C57BL/6, mouse, in vivo, ip, 10 mg/kg, T1/2, brain; i.p. 10 mg/kg; male C57BL/6 mice
assay-endpoint: half-life (h)
Quick reminder: number only, in h, skip the unit.

Ask | Please list half-life recorded for the compound COCCCNC1c2ccccc2N(C)S(=O)(=O)c2cc(Cl)ccc21 (stereo not shown)
Reply | 5.12

###

assayed-system: Human MOR (Homo sapiens (Human))
Sequence (P35372 whole entry): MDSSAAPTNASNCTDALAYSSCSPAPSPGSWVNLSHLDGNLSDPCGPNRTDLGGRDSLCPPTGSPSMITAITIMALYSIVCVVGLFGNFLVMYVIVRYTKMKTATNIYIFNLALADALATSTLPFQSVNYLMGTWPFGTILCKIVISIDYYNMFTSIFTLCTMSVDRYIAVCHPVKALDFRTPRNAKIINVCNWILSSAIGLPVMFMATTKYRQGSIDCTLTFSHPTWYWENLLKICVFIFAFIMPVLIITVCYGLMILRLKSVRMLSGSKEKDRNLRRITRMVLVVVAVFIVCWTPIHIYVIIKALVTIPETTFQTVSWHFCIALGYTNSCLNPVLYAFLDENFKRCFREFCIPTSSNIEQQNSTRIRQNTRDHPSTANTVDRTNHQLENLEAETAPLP
assay-text: BRET G protein activation assay, human MOR in transfected HEK-293T cells
Format: cell-based
study-conditions: BRET G protein activation, HEK-293T; mean ± SEM; read-out: EC50 Human MOR
pEC50: −log10 of the molar value.
This listing pairs compounds with measured pEC50.

Example entries and their recorded answers appear below.
- compound: "COCCCNC1c2ccccc2N(C)S(=O)(=O)c2cc(C)ccc21 (stereo not shown)"
  pEC50: "> 5.00"
- compound: "COCCCNC1c2ccccc2N(C)S(=O)(=O)c2cc(OC(C)=O)ccc21 (stereo not shown)"
  pEC50: "> 5.00"
- compound: "COCCCNC1c2ccccc2N(C)S(=O)(=O)c2cc(Oc3ccccc3)ccc21 (stereo not shown)"
  pEC50: "> 5.00"
- compound: "CCCCCCCNC1c2ccccc2N(C)S(=O)(=O)c2cc(Cl)ccc21 (stereo not shown)"
  pEC50: "> 5.00"
- compound: "CCN1c2ccccc2C(NCCCOC)c2ccccc2S1(=O)=O (stereo not shown)"
  pEC50: "< 4.70"
- compound: "COCCCNC1c2ccccc2N(C)S(=O)(=O)c2cc([S+](C)[O-])ccc21 (stereo not shown)"
  pEC50: "> 4.70"
- compound: "COCCCCNC1c2ccccc2N(C)S(=O)(=O)c2cc(Cl)ccc21 (stereo not shown)"
  pEC50: "> 5.00"
- compound: "CC(C)OCCCNC1c2ccccc2N(C)S(=O)(=O)c2cc(Cl)ccc21 (stereo not shown)"
  pEC50: "> 5.00"
- compound: "CCOC(=O)CCCCCCNC1c2ccc(Br)cc2S(=O)(=O)N(C)c2ccsc21 (stereo not shown)"
  pEC50: "> 5.00"
- compound: "COCCCNC1c2ccccc2S(=O)(=O)N(C)c2c(Br)csc21 (stereo not shown)"
  pEC50: "> 4.70"

Ask | Please list pEC50 recorded for the compound COCCCNC1c2ccccc2N(C)S(=O)(=O)c2cc(SC(C)C)ccc21 (stereo not shown)
Reply | > 5.00

Ask | Please list pEC50 recorded for the compound CN1c2ccccc2C(NCCCCCCC(=O)NCCO)c2ccc(Cl)cc2S1(=O)=O (stereo not shown)
Reply | > 5.00

Ask | Please list pEC50 recorded for the compound CN1CCCC1CCNC1c2ccccc2N(C)S(=O)(=O)c2cc(Cl)ccc21 (stereo not shown)
Reply | > 4.70
